# Assay procedure: Dissociation constant, pKa of the compound in 0.01 M potassium hydrogen phthalate
# Format: physicochemical
Endpoint label: pKa
Numbers only.

Field: example entries. Status: answers known.
• COc1cc(C(=O)N[C@@H]2CCC[C@@H]3CCN(C)C[C@@H]32)cc(OC)c1OC (mixture of isomers) = 9.02
• CN1CC[C@H]2CCC[C@@H](OC(=O)c3ccc(Cl)cc3)[C@@H]2C1 (mixture of isomers) = 8.75

Now consider the entry below.
For the molecule shown here, CN1CC[C@H]2CCC[C@@H](NC(=O)c3ccccc3)[C@@H]2C1 (mixture of isomers) , give the reported pKa.
8.99

# credit: ChEMBL document CHEMBL3272033
